Here's a batch of compounds along with measured IC50 for Cathepsin D (Homo sapiens, UniProt P07339).
Answers are plain numbers, in µM.

Compound	Uom	IC50
COC(=O)[C@]12CC[C@@H](C)[C@H](C)[C@H]1C1=CC[C@@H]3[C@@]4(C)CC[C@H](O)C(C)(C)[C@@H]4CC[C@@]3(C)[C@]1(C)CC2 [METHYL URSOLATE]	µM	9.45

Let's switch to this compound now.
For C[C@H]1[C@H](C)CC[C@]2(C(=O)O)CC[C@]3(C)C(=CC[C@@H]4[C@@]5(C)CC[C@H](O)C(C)(C)[C@@H]5CC[C@]43C)[C@H]12 [URSOLIC ACID] , what is its reported IC50? 18.2
